Some molecules, each annotated with its measured fold induction at 5 µM.
# Test system: autophagosome marker LC3 (LC3 II/LC3 I) in transformed BJ cells
# METHOD DESCRIPTION: Immunoblot analysis of autophagosome marker LC3 (lysosome function), derivatives of Compound 1
# Assay type: cell-based
# SETUP CONDITIONS: Homo sapiens, band intensities LC3 II/LC3 I vs DMSO control, 24 h
QUANTITY: fold induction at 5 µM

INSERT INTO measurements (molecule, reported_measurement) VALUES
  ('N#C/C(=C\c1cccc2cnccc12)c1c[nH]c2c(CN3CCCC3)cccc12 [Compound 33]', 3.7),
  ('N#C/C(=C\c1cccc2cnccc12)c1cn(C(=O)CCN)c2ccccc12 [Compound 22]', 4.1),
  ('N#C/C(=C\c1cccc2cnccc12)c1c[nH]c2ccc(Cl)cc12 [Compound 7]', 2),
  ('CN1CCN(CC(=O)n2cc(/C(C#N)=C/c3cccc4cnccc34)c3ccccc32)CC1 [Compound 16]', 5),
  ('C(=C\c1c[nH]c2ccccc12)/c1cccc2cnccc12 [Compound 25]', 5.4),
  ('COc1ccc2[nH]cc(/C(C#N)=C/c3cccc4cnccc34)c2c1 [Compound 2]', 3.2),
  ('CC(=O)NCCC(=O)n1cc(/C(C#N)=C/c2cccc3cnccc23)c2ccccc21 [Compound 17]', 2.3),
  ('N#C/C(=C\c1cccc2cnccc12)c1c[nH]c2ccc(OCCCN3CCCC3)cc12 [Compound 13]', 6),
  ('CC(C)(C)OC(=O)NCCC(=O)n1cc(/C(C#N)=C/c2cccc3cnccc23)c2ccccc21 [Compound 20]', 3.9),
  ('N#C/C(=C\c1cccc2cnccc12)c1cn(C(=O)CCNC(=O)CCCC[C@@H]2SC[C@@H]3NC(=O)N[C@@H]32)c2ccccc12 [Compound 24]', 3.3),
  ('COCCOCC(=O)n1cc(/C(C#N)=C/c2cccc3cnccc23)c2ccccc21 [Compound 30]', 4.1),
  ('N#C/C(=C\c1cccc2cnccc12)c1c[nH]c2ccc(CN3CCCC3)cc12 [Compound 32]', 3.3),
  ('N#C/C(=C\c1cccc2cnccc12)c1c[nH]c2ccc(NC(=O)CCCC[C@@H]3SC[C@@H]4NC(=O)N[C@@H]43)cc12 [Compound 15]', 1.1),
  ('COc1ccc2c(/C(C#N)=C/c3cccc4cnccc34)c[nH]c2c1 [Compound 9]', 2.6),
  ('N#C/C(=C\c1cccc2cnccc12)c1c[nH]c2c(Br)cccc12 [Compound 5]', 2.2),
  ('N#C/C(=C\c1cncc2cnccc12)c1c[nH]c2ccccc12 [Compound 4]', 1),
  ('N#C/C(=C\c1cccc2cnccc12)c1c[nH]c2cc(CN3CCCC3)ccc12 [Compound 31]', 5.7),
  ('COCCOc1ccc2[nH]cc(/C(C#N)=C/c3cccc4cnccc34)c2c1 [Compound 12]', 3.2),
  ('N#C/C(=C\c1cccc2ncccc12)c1c[nH]c2ccccc12 [Compound 3]', 0.7),
  ('C(=C\c1c[nH]c2ccccc12)/c1cncc2cnccc12 [Compound 26]', 2.7),
  ('COc1cccc2c(/C(C#N)=C/c3cccc4cnccc34)c[nH]c12 [Compound 6]', 2.7),
  ('C(=C\c1c[nH]c2ncccc12)/c1cccc2cnccc12 [Compound 27]', 2),
  ('O=C(Nc1cccc2cnccc12)c1c[nH]c2ccccc12 [Compound 29]', 0.4),
  ('N#C/C(=C\c1cccc2cnccc12)c1c[nH]c2ccc(OCCC3OCCO3)cc12 [Compound 11]', 0.7),
  ('N#C/C(=C\c1cccc2cnccc12)c1c[nH]c2cc(Br)ccc12 [Compound 10]', 0.7),
  ('N#C/C(=C\c1cccc2cnccc12)c1c[nH]c2ccccc12 [Compound 1]', 5),
  ('CC(=O)Nc1ccc2[nH]cc(/C(C#N)=C/c3cccc4cnccc34)c2c1 [Compound 14]', 0.5),
  ('N#C/C(=C\c1cccc2cnccc12)c1cn(C(=O)C2CCN(C(=O)CCCC[C@@H]3SC[C@@H]4NC(=O)N[C@@H]43)CC2)c2ccccc12 [Compound 23]', 5.7),
  ('N#C/C(=C\c1cccc2cnccc12)c1c[nH]c2ccc(Br)cc12 [Compound 8]', 4),
  ('N#C/C(=C\c1cccc2cnccc12)c1cn(C(=O)C2CCNCC2)c2ccccc12 [Compound 21]', 7.3),
  ('N#C/C(=C\c1cccc2cnccc12)c1cn(C(=O)CCCC[C@@H]2SC[C@@H]3NC(=O)N[C@@H]32)c2ccccc12 [Compound 18]', 1.7),
  ('N#C/C(=C\c1cccc2cnccc12)c1n[nH]c2ccccc12 [Compound 34]', 2),
  ('CC(C)(C)OC(=O)N1CCC(C(=O)n2cc(/C(C#N)=C/c3cccc4cnccc34)c3ccccc32)CC1 [Compound 19]', 5.2);
